Assay: Single dose PK, phase 1, healthy Japanese men
Type: in vivo, human
Conditions: male, human, plasma, sc, 0.004 mg, single SC bolus 0.004 mg, mean
Where a SMILES comes first, the peptide text is derived from it. [ ]: non-standard residue; d: D form. Arg(Me) = CNC(=N)NCCC[C@H](N)C(=O)O; Hyp = O=C(O)[C@@H]1C[C@@H](O)CN1; azaGly = NNC(=O)O
observable: Cmax (pg/mL)
Dear colleague, please return just the value in pg/mL, with no unit written.

-- ask Entry CC(=O)O.CNC(=N)NCCC[C@H](NC(=O)[C@H](CC(C)C)NC(=O)NNC(=O)[C@H](Cc1ccccc1)NC(=O)[C@@H](NC(=O)[C@H](CC(N)=O)NC(=O)[C@@H]1C[C@@H](O)CN1C(=O)[C@@H](Cc1ccc(O)cc1)NC(C)=O)[C@@H](C)O)C(=O)N[C@@H](Cc1c[nH]c2ccccc12)C(N)=O [API-MA] (Ac-[dY][Hyp]NTF[azaGly]L[Arg(Me)]W-NH2) has what Cmax?
-- reply 6.17

====

Experiment: Multiple-dose PK, 2-hour SC infusion once daily for 14 days, Japanese prostate cancer patients
Format: in vivo, human
Details: male, human, in vivo, sc, 0.5 mg/day, Japanese prostate cancer patients, 2-hour SC infusion 0.5 mg/day, Day 14, mean; read-out: Vz/F
Where a SMILES comes first, the peptide text is derived from it. [ ]: non-standard residue; d: D form. Arg(Me) = CNC(=N)NCCC[C@H](N)C(=O)O; Hyp = O=C(O)[C@@H]1C[C@@H](O)CN1; azaGly = NNC(=O)O
observable: Vd/F (L)
Write the answer as a number in L, unit excluded.

-- ask Look up Vd/F: CC(=O)O.CNC(=N)NCCC[C@H](NC(=O)[C@H](CC(C)C)NC(=O)NNC(=O)[C@H](Cc1ccccc1)NC(=O)[C@@H](NC(=O)[C@H](CC(N)=O)NC(=O)[C@@H]1C[C@@H](O)CN1C(=O)[C@@H](Cc1ccc(O)cc1)NC(C)=O)[C@@H](C)O)C(=O)N[C@@H](Cc1c[nH]c2ccccc12)C(N)=O [API-MA] (Ac-[dY][Hyp]NTF[azaGly]L[Arg(Me)]W-NH2)
-- reply 63.5

====

Experiment: 1-month depot PK, prostate cancer patients
Assay type: in vivo, human
Conditions: male, human, plasma, sc, 12 mg/month, prostate cancer patients, 1-month depot SC 12 mg/month, geometric mean; read-out: AUC (0-29 d) (converted)
Where a SMILES comes first, the peptide text is derived from it. [ ]: non-standard residue; d: D form. Arg(Me) = CNC(=N)NCCC[C@H](N)C(=O)O; Hyp = O=C(O)[C@@H]1C[C@@H](O)CN1; azaGly = NNC(=O)O
observable: AUC(0-t) (ng·h/mL)
Just the number please, in ng·h/mL, no unit attached.

-- ask State the recorded AUC(0-t) for this entry: CC(=O)O.CNC(=N)NCCC[C@H](NC(=O)[C@H](CC(C)C)NC(=O)NNC(=O)[C@H](Cc1ccccc1)NC(=O)[C@@H](NC(=O)[C@H](CC(N)=O)NC(=O)[C@@H]1C[C@@H](O)CN1C(=O)[C@@H](Cc1ccc(O)cc1)NC(C)=O)[C@@H](C)O)C(=O)N[C@@H](Cc1c[nH]c2ccccc12)C(N)=O [API-MA] (Ac-[dY][Hyp]NTF[azaGly]L[Arg(Me)]W-NH2)
-- reply 138
